# measured_on: rat TRPV1 N628W mutant (Rattus norvegicus, UniProt O35433, N628W)
# Sequence (O35433 whole entry N628W): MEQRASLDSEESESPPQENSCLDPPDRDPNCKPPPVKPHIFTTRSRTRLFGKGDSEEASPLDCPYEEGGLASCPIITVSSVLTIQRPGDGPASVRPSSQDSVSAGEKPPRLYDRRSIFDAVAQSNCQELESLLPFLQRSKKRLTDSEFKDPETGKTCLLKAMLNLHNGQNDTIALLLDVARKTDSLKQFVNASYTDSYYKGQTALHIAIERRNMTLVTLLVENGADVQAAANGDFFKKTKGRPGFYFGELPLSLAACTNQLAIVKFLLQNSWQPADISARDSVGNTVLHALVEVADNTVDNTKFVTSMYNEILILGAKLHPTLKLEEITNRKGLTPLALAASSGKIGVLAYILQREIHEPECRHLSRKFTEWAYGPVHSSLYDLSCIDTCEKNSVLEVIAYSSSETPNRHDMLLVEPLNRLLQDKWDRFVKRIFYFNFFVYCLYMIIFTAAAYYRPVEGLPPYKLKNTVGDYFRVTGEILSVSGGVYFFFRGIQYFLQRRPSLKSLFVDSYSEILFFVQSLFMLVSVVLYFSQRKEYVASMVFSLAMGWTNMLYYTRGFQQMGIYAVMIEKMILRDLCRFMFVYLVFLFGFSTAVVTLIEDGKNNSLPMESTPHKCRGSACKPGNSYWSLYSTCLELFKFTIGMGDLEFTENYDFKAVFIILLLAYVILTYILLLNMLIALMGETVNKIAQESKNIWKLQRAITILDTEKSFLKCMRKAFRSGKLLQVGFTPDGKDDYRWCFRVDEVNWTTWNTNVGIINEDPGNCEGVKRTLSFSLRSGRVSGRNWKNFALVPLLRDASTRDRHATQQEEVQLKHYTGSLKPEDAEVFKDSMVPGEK
# assay_name: CAPS-evoked 45Ca2+ influx in cells expressing the TRPV1 N628W point mutant
# experimental_conditions: read-out: IC50, 45Ca2+ influx, 4 μM CAPS
IC50 listing for selected compounds.
Put down the number, then write its unit next to it.

• [Co+2] = 16.4 µM

Query: # query: IC50 of entry N.N.N.N.N.N.N.N.N.N.N.N.N.N.[Cl-].[Cl-].[Cl-].[Cl-].[Cl-].[Cl-].[O-2].[O-2].[Ru+3].[Ru+3].[Ru+4] [RuRed, Ruthenium Red, reference compound]
Result: 1.33 µM
